Test system: SK-OV-3 ovarian
Experiment: NCI-60 one-dose screen, 48 h (100 = growth as untreated, 0 = no growth, -100 = all killed)
Conditions: 10 µM
About 83,000 compounds went through this panel and 20% of them were active in at least one assay; those are over-represented in the sample as a whole. Active and inactive are the calls of the source. The calls were made as follows: active = growth percent below 10; inactive = the rest.
Measured growth, listed per entry.

O=C(/C=C/c1cccc(B(O)O)c1)c1cccc(B(O)O)c1 :: 3.23% (active)
CC(=O)Oc1cc(OC(C)=O)c2ccccc2c1OC(C)=O :: 76.8% (inactive)

QUERY: If you can, please state the reported growth value of "CCNCC(=O)Nc1ccc(C(=O)OCC)cc1" .
RESULT: 99.8% (inactive)

QUERY: Can you look up the measured growth of "COc1cc2cc(Oc3ccc(NC(=O)c4cc(C(F)(F)F)cc(C(F)(F)F)c4)cc3)c(C)nc2cc1OC" for me?
RESULT: 44.5% (inactive)

QUERY: Which measured growth value corresponds to "O=C1/C(=C/c2ccc([N+](=O)[O-])s2)Oc2cc(Cl)ccc21" ?
RESULT: 88.8% (inactive)

* * *

Form field: growth (one value per entry).
Test system: MCF7 breast
Test: NCI-60 one-dose screen, 48 h (100 = growth as untreated, 0 = no growth, -100 = all killed)
Conditions: 10 µM
The panel holds about 83,000 compounds, 20% with a hit somewhere; the sample as a whole holds those more often.
Use % as the unit, but write only the number.

CCN(CC)CCOc1cccc2c1C(=O)c1ccccc1C2=O :: 92.1
CCCCCCCCCCOC(c1ccccc1)c1ccccc1 :: 91.1
S=C1N(c2ccccc2)CN(C2CCCCC2)CN1c1ccccc1 :: 88.7
CCOC(=O)C(C)(c1ccccc1)c1ccccc1 :: 99.6
NS(=O)(=O)Oc1ccc(NC(=O)C2CCCCCC2)cc1 :: 97.7

QUERY: Give its growth value. Item: "COc1ccc(-c2nc(-c3nc4ccc(C)cc4[nH]3)cc3c2[nH]c2ccccc23)cc1"
RESULT: 36.1

QUERY: What value of growth has been reported for the following compound? "CC(C)(C)c1ccc(S(=O)(=O)N[C@H]2CC[C@H]3[C@@H]4CCc5cc(O)c([N+](=O)[O-])cc5[C@H]4CC[C@]23C)cc1"
RESULT: 54.1

QUERY: Any idea what growth was measured for CC(C)=CCC/C(C)=C/CC/C(C)=C/CC/C=C(\C)CC/C=C(\C)CCC(=O)Nc1ccn(C2OC(CO)C(O)C2(F)F)c(=O)n1 (stereo unspecified) ?
RESULT: 21.8

QUERY: Entry COc1cc(C2CC(c3cc(Cl)c(C)cc3O)=NN2c2ccc(S(N)(=O)=O)cc2)cc(OC)c1OC (stereo unspecified) : reported growth = ?
RESULT: -15.4

QUERY: Endpoint output: growth of "COc1ccccc1/C=N\N/C(N)=N\N=C\c1ccccc1OC" . Value?
RESULT: 11.3

QUERY: Entry "CC(C)(O)CCl" has what growth?
RESULT: 100

* * *

Test system: MALME-3M melanoma
Assay: NCI-60 one-dose screen, 48 h (100 = growth as untreated, 0 = no growth, -100 = all killed)
Settings: 10 µM
This is part of a sample that, as a whole, favours compounds with a hit. Of some 83,000 tested, about 20% had one in any assay. Calls of active or inactive are those of the source. Rule for the calls: active = growth percent below 10; inactive = the rest.
measured_property: growth

Cc1c(Cl)cccc1NC(=O)CN1CCOCC1 :: 92.6% (inactive)
CCN1C(=O)CC(SC2CC(=O)N(CC)C2=O)C1=O (centres undefined) :: 97.6% (inactive)
Nc1ccc(-c2cccs2)cc1NC(=O)c1ccc(CCCC(=O)Nc2ccc(C3CC3N)cc2)cc1 (centres undefined) :: 75.1% (inactive)
CC(C)Cc1ccc([C@H](C)C(=O)O)cc1 :: 107% (inactive)
CC(C)N(CCOc1cccc(-c2nc3sccn3c2-c2ccnc(S(C)(=O)=O)n2)c1)C(C)C :: 91.3% (inactive)

QUERY: Record request: growth value, item "O=C(Nc1ccc(F)cc1)c1cc2ccccc2cc1O"
RESULT: 72% (inactive)

QUERY: Can you look up the measured growth of "CCn1c(SCc2ccc(C)cc2)nnc1-c1nn(-c2ccc(Cl)cc2Cl)c(-c2ccc(Cl)cc2)c1C" for me?
RESULT: 7.8% (active)

QUERY: Can you share its growth? I mean this molecule: "COc1ccc(-c2n[nH]nc2-c2cc(OC)c3c(c2OC)OCO3)cc1"
RESULT: 61.7% (inactive)

QUERY: Using the record for "O=C1C=C(Nc2cccc(Br)c2)c2ccccc2C1=O" , report its growth.
RESULT: 47.2% (inactive)
